Origin of the recorded values: paper PMC5540273

test system: RSK2(Kin.Dom.2-C-terminal); construct: gene RPS6KA3; conditions: concentration: 1 μM, replicates: in singlicate; n = 1;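 further: KINOMEscan kinase panel screen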
MEASURED METRIC: %Inh (%)
// units = %; emit number, no label

molecule=O=c1cc(N2CCOCC2)nc2n(Cc3cccc4ccccc34)ccn12 measured_metric=%Inh unit_string=% measurement=0
molecule=COc1ccc(COc2cc(-n3cnc4ccccc43)sc2C(N)=O)cc1 measured_metric=%Inh unit_string=% measurement=16
molecule=Cc1cn2c(=O)cc(N3CCOCC3)nc2n1Cc1cccc(Cl)c1Cl measured_metric=%Inh unit_string=% measurement=25
molecule=O=C(NOCC1CC1)c1ccc(F)c(F)c1Nc1ccc(I)cc1Cl measured_metric=%Inh unit_string=% measurement=0
molecule=Cc1c2ccc(N(C)c3ccnc(Nc4cccc(S(N)(=O)=O)c4)n3)cc2nn1Cc1ccccc1.Cl.Cl measured_metric=%Inh unit_string=% measurement=0

Entry under test: `O=c1cc(N2CCOCC2)nc2n(Cc3cccc(C(F)(F)F)c3)ccn12` . Its %Inh was 6

Entry under test: Cc1nnc(-c2ccc3occ(-c4ccc(C(C)O)cc4)c3c2)o1 (centres unmarked) . Its %Inh was 0

Entry under test: `CC(=O)Nc1ccc(COc2ccc(Nc3ccnc4cc(-c5ccccn5)ccc34)cc2)cc1.Cl` . Its %Inh was 6

Entry under test: COc1ccc(CNC(=O)NC2CCN(c3ccnc(Nc4ccc(OC)cc4)n3)C2)cc1 (centres unmarked) . Its %Inh was 0

Entry under test: `CN1c2ccc(CNc3ccc(F)cc3)cc2-c2c(cnn2C)S1(=O)=O` . Its %Inh was 41

Entry under test: `Cc1ccc(C(=O)NCC(N)=O)cc1-n1c(C)cc(OCc2ccc(F)cc2F)c(Br)c1=O` . Its %Inh was 0

Entry under test: `NS(=O)(=O)c1cccc(-c2ccc3ncc(N4CCOCC4)nc3c2)c1` . Its %Inh was 7

Entry under test: `O=C(NCCCN1CCOCC1)c1cccc(Nc2nccc(Nc3ccc(Oc4ccccc4)cc3)n2)c1` . Its %Inh was 11

Entry under test: `NS(=O)(=O)CCc1cccc(Nc2nccc(-c3c(-c4cccc(NC(=O)c5c(F)cccc5F)c4)nn4ccccc34)n2)c1` . Its %Inh was 0

Entry under test: `CN1c2ccc(NCc3ccc(F)cc3)cc2-c2c(cnn2C)S1(=O)=O` . Its %Inh was 31

Entry under test: `Fc1ccc(-c2ncn(CCCN3CCOCC3)c2-c2ccccn2)cc1` . Its %Inh was 49

Entry under test: `COC(=O)Nc1nc2cc(Oc3ccc(NC(=O)Nc4cc(F)ccc4F)cc3)ccc2[nH]1.Cl` . Its %Inh was 1

Entry under test: `CCCCCc1nc2c(N)ncnc2n1CCCCC` . Its %Inh was 0

Entry under test: `[2H]C([2H])(c1cccc(C(F)(F)F)c1C)n1ccn2c(=O)nc(N3CCOCC3)cc12` . Its %Inh was 18

Entry under test: `Cc1cccc(-c2nc(-c3ccc(S(C)(=O)=O)cc3)sc2-c2ccncc2)c1` . Its %Inh was 25

Entry under test: `CN(C1=C(c2ccccc2)C(=O)NC1=O)c1ccccc1` . Its %Inh was 23

Entry under test: `NS(=O)(=O)c1cccc(-c2ccc3nccc(-c4cccc(S(N)(=O)=O)c4)c3c2)c1` . Its %Inh was 56

Entry under test: `CSc1ccc(-c2cc3ncnc(SCC(=O)O)c3s2)cc1` . Its %Inh was 0

Entry under test: `Cc1cccc(Cn2ccn3c(=O)cc(N4CCOCC4)nc23)c1` . Its %Inh was 33

Entry under test: `COc1ccc(S(=O)(=O)NC2CCN(c3cc(C)nc(Nc4cccc(C#N)c4)n3)CC2)cc1.O=C(O)C(F)(F)F` . Its %Inh was 0

Entry under test: `O=C1Cc2cc(Nc3nc(NCc4cccc(S(=O)(=O)C(F)(F)F)c4)ncc3C(F)(F)F)ccc2N1` . Its %Inh was 15

Entry under test: `CNc1ncnc2[nH]ncc12` . Its %Inh was 0
